system: Microsporum canis; assay: agar dilution test, minimal inhibitory concentration; type: cell-based; details: Stamm No 169/M, Agardilutionstest, read-out: MHK-Werte
quantity.name: MIC (µg/mL)
Give just the numeric value; µg/mL need not be written.

Reported MIC for CC1CCCN(CC(C)C[C@H]2CC[C@@H](C(C)(C)C)CC2)C1 (relative stereo) [(1) cis] : what is it?
0.5

// next record Cc1cccc(N(C)C(=S)Oc2ccc3ccccc3c2)c1 [Tolnaftat, reference compound]
0.32

// next record CC1CCCN(CC(C)C[C@H]2CC[C@H](C(C)(C)C)CC2)C1 (relative stereo) [(1) trans]
0.0625

// next record Clc1ccccc1C(c1ccccc1)(c1ccccc1)n1ccnc1 [Clotrimazol, reference compound]
0.64

// next record CC(CN1C[C@@H](C)O[C@@H](C)C1)C[C@H]1CC[C@H](C(C)(C)C)CC1 (relative stereo) [(3) trans]
0.0312

// next record CC1CC(C)CN(CC(C)C[C@H]2CC[C@H](C(C)(C)C)CC2)C1 (relative stereo) [(2) trans]
0.0312

###

Epidermophyton floccosum measurements of MIC, listed per entry.
Give just the numeric value; µg/mL need not be written.

Reported MIC for CC(CN1C[C@@H](C)O[C@@H](C)C1)C[C@H]1CC[C@@H](C(C)(C)C)CC1 (relative stereo) [(3) cis] : what is it?
0.25

// next record CC1CCCN(CC(C)C[C@H]2CC[C@@H](C(C)(C)C)CC2)C1 (relative stereo) [(1) cis]
0.25

// next record CC1CCCN(CC(C)C[C@H]2CC[C@H](C(C)(C)C)CC2)C1 (relative stereo) [(1) trans]
0.0312

// next record CC(CN1C[C@@H](C)O[C@@H](C)C1)C[C@H]1CC[C@H](C(C)(C)C)CC1 (relative stereo) [(3) trans]
0.0312

// next record Cc1cccc(N(C)C(=S)Oc2ccc3ccccc3c2)c1 [Tolnaftat, reference compound]
0.32

// next record CC1CC(C)CN(CC(C)C[C@H]2CC[C@H](C(C)(C)C)CC2)C1 (relative stereo) [(2) trans]
0.0156

// next record Clc1ccccc1C(c1ccccc1)(c1ccccc1)n1ccnc1 [Clotrimazol, reference compound]
0.32

###

test system: Trichophyton mentagrophytes; experiment: agar dilution test, minimal inhibitory concentration; type: cell-based; conditions: Stamm No 159/M, Agardilutionstest, read-out: MHK-Werte
quantity.name: MIC

Reported MIC for CC1CCCN(CC(C)C[C@H]2CC[C@H](C(C)(C)C)CC2)C1 (relative stereo) [(1) trans] : what is it?
0.0078 µg/mL

// next record CC1CC(C)CN(CC(C)C[C@H]2CC[C@H](C(C)(C)C)CC2)C1 (relative stereo) [(2) trans]
< 0.0078 µg/mL

// next record CC1CCCN(CC(C)C[C@H]2CC[C@@H](C(C)(C)C)CC2)C1 (relative stereo) [(1) cis]
0.0312 µg/mL

// next record CC(CN1C[C@@H](C)O[C@@H](C)C1)C[C@H]1CC[C@H](C(C)(C)C)CC1 (relative stereo) [(3) trans]
< 0.0078 µg/mL

// next record CC(CN1C[C@@H](C)O[C@@H](C)C1)C[C@H]1CC[C@@H](C(C)(C)C)CC1 (relative stereo) [(3) cis]
0.0625 µg/mL

// next record Clc1ccccc1C(c1ccccc1)(c1ccccc1)n1ccnc1 [Clotrimazol, reference compound]
0.32 µg/mL

// next record Clc1ccc(COC(Cn2ccnc2)c2ccc(Cl)cc2Cl)c(Cl)c1 (stereo not drawn) [Miconazol, reference compound]
0.32 µg/mL

// next record CC1CC(C)CN(CC(C)C[C@H]2CC[C@@H](C(C)(C)C)CC2)C1 (relative stereo) [(2) cis]
0.0156 µg/mL

// next record Cc1cccc(N(C)C(=S)Oc2ccc3ccccc3c2)c1 [Tolnaftat, reference compound]
0.08 µg/mL

###

Consider the following compounds; for each one, report its MIC.
tested on: Trichophyton violaceum
Give just the numeric value; µg/mL need not be written.

Reported MIC for CC1CCCN(CC(C)C[C@H]2CC[C@H](C(C)(C)C)CC2)C1 (relative stereo) [(1) trans] : what is it?
0.0156

// next record Clc1ccccc1C(c1ccccc1)(c1ccccc1)n1ccnc1 [Clotrimazol, reference compound]
0.16

// next record CC1CCCN(CC(C)C[C@H]2CC[C@@H](C(C)(C)C)CC2)C1 (relative stereo) [(1) cis]
0.0625

###

Consider the following molecules; for each one, report its MIC.
test system: Microsporum canis; experiment: agar dilution test, minimal inhibitory concentration; assay type: cell-based; settings: Stamm No 155/M, Agardilutionstest, read-out: MHK-Werte
Give just the numeric value; µg/mL need not be written.

Reported MIC for Cc1cccc(N(C)C(=S)Oc2ccc3ccccc3c2)c1 [Tolnaftat, reference compound] : what is it?
0.32

// next record Clc1ccccc1C(c1ccccc1)(c1ccccc1)n1ccnc1 [Clotrimazol, reference compound]
0.32

// next record CC1CC(C)CN(CC(C)C[C@H]2CC[C@H](C(C)(C)C)CC2)C1 (relative stereo) [(2) trans]
0.0312

// next record CC(CN1C[C@@H](C)O[C@@H](C)C1)C[C@H]1CC[C@H](C(C)(C)C)CC1 (relative stereo) [(3) trans]
0.0312

// next record CC(CN1C[C@@H](C)O[C@@H](C)C1)C[C@H]1CC[C@@H](C(C)(C)C)CC1 (relative stereo) [(3) cis]
0.5

// next record CC1CCCN(CC(C)C[C@H]2CC[C@H](C(C)(C)C)CC2)C1 (relative stereo) [(1) trans]
0.0156

###

assay: acute oral toxicity (LD50) in the mouse; conditions: in vivo, Maus per os
Consider the following compounds; for each one, report its LD50.
Give just the numeric value; mg/kg need not be written.

Reported LD50 for CC(CN1C[C@@H](C)O[C@@H](C)C1)C[C@H]1CC[C@H](C(C)(C)C)CC1 (relative stereo) [(3) trans] : what is it?
2250

// next record CC1CCCN(CC(C)C[C@H]2CC[C@H](C(C)(C)C)CC2)C1 (relative stereo) [(1) trans]
305

// next record CC1CC(C)CN(CC(C)C[C@H]2CC[C@H](C(C)(C)C)CC2)C1 (relative stereo) [(2) trans]
335

###

system: Trichophyton violaceum
quantity.name: MIC (µg/mL)
Give just the numeric value; µg/mL need not be written.

// map CC(CN1C[C@@H](C)O[C@@H](C)C1)C[C@H]1CC[C@H](C(C)(C)C)CC1 (relative stereo) [(3) trans] to recorded MIC (system: Trichophyton violaceum)
0.0156

// next record Clc1ccc(COC(Cn2ccnc2)c2ccc(Cl)cc2Cl)c(Cl)c1 (stereo not shown) [Miconazol, reference compound]
0.64

// next record CC1CC(C)CN(CC(C)C[C@H]2CC[C@@H](C(C)(C)C)CC2)C1 (relative stereo) [(2) cis]
0.0625
